- method: JC-1 mitochondrial potential readout, lung cancer cells – cell-based, A549, JC-1 fluorescence, basal, 24 h, 100 nL, profiling panel (AID 1138);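 note: A549 lung adenocarcinoma cells under basal conditions with no added stimulus; test concentration not given here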
- settings: higher = more signal
quantity-measured: z-score

{"columns": ["molecule", "quantity-measured", "readout-value"],
 "data": [
  ["COCCCNC(=O)[C@@]1(Cc2ccccc2N=[N+]=[N-])N=C(c2ccc(OCCCO)cc2)O[C@H]1c1ccccc1CN=[N+]=[N-]", "z-score", 1.64],
  ["O=C(O)[C@]1(CCS(=O)(=O)c2ccccc2)N=C(c2ccc(OCCCO)cc2)O[C@@H]1c1ccccc1", "z-score", 0.0511],
  ["CC[C@@H]1[C@@H]2C3C(=O)N(CC)C(=O)C3CC(=O)[C@@H]2[C@H](c2ccc(C)cc2)N1S(=O)(=O)c1ccc(C)cc1 (stereo not given in full)", "z-score", -0.0765],
  ["COc1ccc([Si](C)(C)[C@H]2[C@H](CCn3cc(CCO)nn3)O[C@@]3(C(=O)N(Cc4cccc(N5C(=O)c6cccc7cccc5c67)c4)c4ccccc43)[C@@H]2C)cc1", "z-score", -0.338],
  ["OCc1ccc(-c2cc[n+](Cc3cccc(OC(F)(F)F)c3)cc2)cc1", "z-score", -0.884],
  ["O=C1O[C@H](c2ccccc2)[C@H](c2ccccc2)N2[C@H]1[C@@H](C(=O)N1CCN(c3ncccn3)CC1)[C@]1(C(=O)Nc3ccc(C#CCCO)cc31)[C@H]2c1ccccc1OCCO", "z-score", 0.91],
  ["C=CCC(OC(C)=O)[C@@H]1[C@@H](N(Cc2ccc(-c3cccc(C(F)(F)F)c3)o2)C(=O)c2cccc3ccccc23)c2cc(OCCCO)ccc2N1C(=O)c1ccc(-c2ccccc2)cc1 (stereo not given in full)", "z-score", -0.328],
  ["COC(=O)[C@@]1(Cc2ccc(F)cc2)[C@@H]2[C@@H](CC(=O)[C@H]2CC(=O)C(=O)N2CCCC2)CN1C(=O)c1ccccc1", "z-score", 0.694],
  ["CC(C)c1ccc(NN2C(C(O)c3cccs3)C=CC3C(=O)N(c4ccccc4)C(=O)C32)cc1 (stereo not given)", "z-score", -1.13],
  ["CCOC(=O)C[C@H]1[C@H](OC(=O)c2ccc(C(=O)c3ccccc3)cc2)[C@@H](NC(=O)C2CCCCC2)c2cc(OCCCO)ccc2N1C(=O)Cc1ccc(OC)cc1", "z-score", 1.36],
  ["CCCCC(O)C1C=CC2C(=O)N(Cc3ccccc3)C(=O)C2N1n1cnnc1 (stereo not given)", "z-score", -0.721],
  ["O=c1c2ccc(Br)cc2nc(-c2ccccc2)n1Cc1cccc(O)c1", "z-score", 0.836],
  ["O=C(CS)NCCCCCNC(=O)[C@@H]1C[C@@H]2C(=O)N3CCC[C@H]3C(=O)N2[C@@H]1c1ccc(O)cc1", "z-score", 0.605],
  ["CC(C)CCC[C@@H](C)[C@H]1CC[C@@]2(C)C3=C(CC[C@]12C)[C@@]1(C)CC[C@H](OC(=O)C(C)(C)C)C(C)(C)C1CC3 (stereo not given in full)", "z-score", 0.4],
  ["CCCCC=C[C@@H](NC(=O)CCc1ccccc1)c1ccccc1", "z-score", -2.3]
]}

====

- experimental-target: Fibroblast growth factor 2 (Homo sapiens) (UniProt P09038)
- Sequence (P09038 whole entry, looked up): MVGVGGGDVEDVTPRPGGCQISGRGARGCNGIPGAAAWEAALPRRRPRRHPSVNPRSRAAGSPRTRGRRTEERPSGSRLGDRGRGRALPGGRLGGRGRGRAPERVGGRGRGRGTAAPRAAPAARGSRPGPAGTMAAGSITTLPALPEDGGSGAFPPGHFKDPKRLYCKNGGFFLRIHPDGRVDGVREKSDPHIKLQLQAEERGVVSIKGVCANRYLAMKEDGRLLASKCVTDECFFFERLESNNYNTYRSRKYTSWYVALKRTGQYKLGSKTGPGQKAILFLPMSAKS
- method: basic fibroblast growth factor binding to printed compounds – biochemical, small-molecule microarray, 635/667 nm fluorescence, primary screen (AID 1133)
- settings: FGF2, fluorescence 635/667, higher = more signal
Give class 1 when the value for composite z-score is at least 0.1. Give class 0 when it is less.

{"columns": ["compound", "experimental-target", "class"],
 "data": [
  ["COCCOC(=O)N1C(=O)[C@@]2(c3cc(C#Cc4ccc(OC)cc4)ccc31)[C@H](C(N)=O)[C@H]1C(=O)O[C@H](c3ccccc3)[C@H](c3ccccc3)N1[C@@H]2c1ccc(OCCO)cc1", "Fibroblast growth factor 2 (Homo sapiens) (UniProt P09038)", "class 1"],
  ["Cc1cc(C)c(C(O)C2C=CC3C(=O)N(c4ccccc4)C(=O)C3N2Nc2ccc([N+](=O)[O-])cc2)c(C)c1 (configuration not stated)", "Fibroblast growth factor 2 (Homo sapiens) (UniProt P09038)", "class 1"],
  ["Cc1ccc(S[C@]2(C(=O)NCCN3CCOCC3)CC(=O)N(C3Cc4ccccc4C3)[C@@H]2c2ccc(CO)cc2)cc1", "Fibroblast growth factor 2 (Homo sapiens) (UniProt P09038)", "class 0"],
  ["COC(=O)C(CC#Cc1ccc2c(c1)[C@]1(C(=O)N2)[C@H](C(=O)N2CCc3cc(OC)c(OC)cc3C2)[C@H]2C(=O)O[C@H](c3ccccc3)[C@H](c3ccccc3)N2[C@@H]1c1ccc(OCCO)cc1)C(=O)OC", "Fibroblast growth factor 2 (Homo sapiens) (UniProt P09038)", "class 1"],
  ["CN(C)CCCN1C(=O)[C@@]2(Cc3ccccc31)c1ccccc1C(=O)N(Cc1ccccc1)[C@H]2c1ccc(CO)cc1", "Fibroblast growth factor 2 (Homo sapiens) (UniProt P09038)", "class 1"],
  ["CN(C)C(=O)[C@@]1(CCS(=O)(=O)c2ccccc2)N=C(c2ccc(OCCCO)cc2)O[C@H]1c1ccccc1CN=[N+]=[N-]", "Fibroblast growth factor 2 (Homo sapiens) (UniProt P09038)", "class 1"],
  ["CC1CC/C=C\\[C@H]2OC34C=CCN(Cc5ccccc5)C(=O)[C@H]3N(CCO)C(=O)[C@@H]4C2C(=O)O1 (some centres not stated)", "Fibroblast growth factor 2 (Homo sapiens) (UniProt P09038)", "class 0"],
  ["CC(C)=CCCC(C)=CC(O)C1C=CC2C(=O)N(c3ccccc3)C(=O)C2N1Nc1ccc([N+](=O)[O-])cc1 (configuration not stated)", "Fibroblast growth factor 2 (Homo sapiens) (UniProt P09038)", "class 0"],
  ["C=CCOC(=O)[C@H]1[C@@H]2C(=O)O[C@@H](c3ccccc3)[C@@H](c3ccccc3)N2[C@@H](c2ccc(OCCOC(=O)[C@H]3C[C@H]4C(=O)N[C@@H](CCCCN(C)C)C(=O)N4[C@H]3c3ccc(O)cc3)cc2)[C@]12C(=O)Nc1ccccc12", "Fibroblast growth factor 2 (Homo sapiens) (UniProt P09038)", "class 1"],
  ["COc1ccc(C#Cc2ccc3c(c2)[C@]2(C(=O)N3)[C@H](c3ccc(OCCO)cc3)N3[C@H](c4ccccc4)[C@H](c4ccccc4)OC(=O)[C@H]3[C@@H]2C(=O)N2CCN(c3ncccn3)CC2)cc1", "Fibroblast growth factor 2 (Homo sapiens) (UniProt P09038)", "class 0"],
  ["[N-]=[N+]=NCc1ccccc1C[C@@]1(C(=O)NCCN2CCOCC2)N=C(c2ccc(OCCCO)cc2)O[C@@H]1c1ccccc1CN=[N+]=[N-]", "Fibroblast growth factor 2 (Homo sapiens) (UniProt P09038)", "class 1"],
  ["C=CCC(OC(C)=O)[C@@H]1[C@@H](N(Cc2cc3ccccc3o2)C(=O)Cc2ccc(OC)cc2)c2cc(OCCCO)ccc2N1C(=O)c1ccc(-c2ccccc2)cc1 (some centres not stated)", "Fibroblast growth factor 2 (Homo sapiens) (UniProt P09038)", "class 1"],
  ["COC(=O)[C@@]1(Cc2ccc(OC)cc2)[C@H]2c3cc(C(=O)N(C)C)n(CCF)c3C[C@H]2CN1C(=O)c1ccccc1", "Fibroblast growth factor 2 (Homo sapiens) (UniProt P09038)", "class 1"],
  ["CCCc1cc2c(n1Cc1ccc(OC)cc1)C(C)C1CN(C(=O)c3ccccc3)C(C)(C(=O)OC)C21 (configuration not stated)", "Fibroblast growth factor 2 (Homo sapiens) (UniProt P09038)", "class 0"],
  ["COc1cc(NN2C(C(O)c3ccc(I)cc3)C=CC3C(=O)N(C)C(=O)C32)cc(OC)c1OC (configuration not stated)", "Fibroblast growth factor 2 (Homo sapiens) (UniProt P09038)", "class 0"],
  ["C[N+](C)(C)CCCCCCNC(=O)[C@@H]1C[C@@H]2C(=O)NCC(=O)N2[C@@H]1c1ccc(O)cc1", "Fibroblast growth factor 2 (Homo sapiens) (UniProt P09038)", "class 1"],
  ["COCCOC(=O)N1C(=O)[C@@]2(c3cc(C#CCNC(N)=O)ccc31)[C@H](c1ccc(OCCO)cc1)N1[C@H](c3ccccc3)[C@H](c3ccccc3)OC(=O)[C@H]1[C@@H]2C(=O)N1CCN(c2ncccn2)CC1", "Fibroblast growth factor 2 (Homo sapiens) (UniProt P09038)", "class 1"],
  ["C=C(/C(=C/C[C@@H](OC(=O)c1ccncc1)c1ccccc1OCCO)c1cnc2ccccc2c1)C(C)C", "Fibroblast growth factor 2 (Homo sapiens) (UniProt P09038)", "class 1"],
  ["CC(C)NC(=O)[C@@H]1c2ccccc2C(=O)N(Cc2cc(C(F)(F)F)cc(C(F)(F)F)c2)[C@H]1c1ccc(CO)cc1", "Fibroblast growth factor 2 (Homo sapiens) (UniProt P09038)", "class 1"],
  ["C=C(CCCC)/C(=C/C[C@H](OC(=O)c1ccncc1)c1ccc(CO)o1)c1cc(C(=O)OC)ccc1OC", "Fibroblast growth factor 2 (Homo sapiens) (UniProt P09038)", "class 1"],
  ["O=C(O)[C@@]1(Cc2ccccc2)COC(c2ccc(OCCCO)cc2)=N1", "Fibroblast growth factor 2 (Homo sapiens) (UniProt P09038)", "class 0"],
  ["O=C1C[C@@](C(=O)O)(c2ccc([N+](=O)[O-])cc2)[C@@H](c2ccc(CO)cc2)N1CC12CC3CC(CC(C3)C1)C2", "Fibroblast growth factor 2 (Homo sapiens) (UniProt P09038)", "class 0"],
  ["C[C@]12C(=O)N(CCCCCO)[C@@H]3C(=O)N(c4ccc(Cl)cc4)CC=CC31O[C@@H]1/C=C\\CCCOC(=O)C12 (some centres not stated)", "Fibroblast growth factor 2 (Homo sapiens) (UniProt P09038)", "class 0"],
  ["CC(C)CN1C(=O)[C@@]2(Cc3ccccc31)c1ccccc1C(=O)N(Cc1ccccc1)[C@H]2c1ccc(CO)cc1", "Fibroblast growth factor 2 (Homo sapiens) (UniProt P09038)", "class 0"],
  ["C=CCC(OC(C)=O)[C@@H]1[C@@H](N(Cc2cccc3ccccc23)C(=O)c2ccc(C)cc2)c2cc(OCCCO)ccc2N1C(=O)c1ccc2ccccc2c1 (some centres not stated)", "Fibroblast growth factor 2 (Homo sapiens) (UniProt P09038)", "class 1"],
  ["CCN(CC)c1ccc(N2CC=CC34O[C@@H]5/C=C\\CCCOC(=O)C5[C@H]3C(=O)N(CCCCCO)[C@@H]4C2=O)cc1 (some centres not stated)", "Fibroblast growth factor 2 (Homo sapiens) (UniProt P09038)", "class 0"],
  ["COC(=O)c1ccc(OC)c(/C=C\\CC(CCc2ccccc2)OC(=O)c2ccncc2)c1 (configuration not stated)", "Fibroblast growth factor 2 (Homo sapiens) (UniProt P09038)", "class 1"]
]}
